System: Mycolicibacterium smegmatis
Test: Antimycobacterial activity against Mycobacterium smegmatis (SANK 75075)
Format: functional
Let's look at some compounds and their measured MIC.
Answer in µg/mL, number only, no unit symbol.

CO[C@H]1[C@@H](O)[C@H](n2ccc(=O)[nH]c2=O)O[C@@H]1[C@@H](O[C@H]1OC(C(=O)NCCc2cccc(Cl)c2)=C[C@H](O)[C@@H]1O)C(N)=O
12.5

Ask: What value of MIC has been recorded for this entry: CCOc1ccccc1NC(=O)C1=C[C@H](O)[C@H](O)[C@@H](O[C@@H](C(N)=O)[C@H]2O[C@@H](n3ccc(=O)[nH]c3=O)[C@H](O)[C@@H]2OC)O1
Result: 50

Ask: Report MIC for CO[C@H]1[C@@H](O)[C@H](n2ccc(=O)[nH]c2=O)O[C@@H]1[C@@H](O[C@H]1OC(C(=O)NC2CCCCCC2)=C[C@H](O)[C@@H]1O)C(N)=O please.
Result: 25

----------
Listing of entries alongside the reported MIC.
Test system: Mycolicibacterium smegmatis
Assay: Antimycobacterial activity against Mycobacterium smegmatis (SANK 75075)
Type: functional
Your answer is read as µg/mL, so omit the unit and give the number.

CO[C@H]1[C@@H](O)[C@H](n2ccc(=O)[nH]c2=O)O[C@@H]1[C@@H](O[C@H]1OC(C(=O)Nc2ccc(C)cc2)=C[C@H](O)[C@@H]1O)C(N)=O
12.5
CO[C@H]1[C@@H](O)[C@H](n2ccc(=O)[nH]c2=O)O[C@@H]1[C@@H](O[C@H]1OC(C(=O)NCc2ccccc2C)=C[C@H](O)[C@@H]1O)C(N)=O
12.5
CO[C@H]1[C@@H](O)[C@H](n2ccc(=O)[nH]c2=O)O[C@@H]1[C@@H](O[C@H]1OC(C(=O)NCc2ccc(F)cc2)=C[C@H](O)[C@@H]1O)C(N)=O
50
CO[C@H]1[C@@H](O)[C@H](n2ccc(=O)[nH]c2=O)O[C@@H]1[C@@H](O[C@H]1OC(C(=O)NC2CCCCC2)=C[C@H](O)[C@@H]1O)C(N)=O
12.5

Ask: Recorded MIC of COc1ccc(CNC(=O)C2=C[C@H](O)[C@H](O)[C@@H](O[C@@H](C(N)=O)[C@H]3O[C@@H](n4ccc(=O)[nH]c4=O)[C@H](O)[C@@H]3OC)O2)cc1 , please.
Result: 100

----------
Tested on: Mycolicibacterium smegmatis
Test: Antimycobacterial activity against Mycobacterium smegmatis (SANK 75075)
Assay type: functional
Observable: MIC (µg/mL)
Give the number; µg/mL is assumed, so skip it.

Consider the reported MIC for these molecules:
CO[C@H]1[C@@H](O)[C@H](n2ccc(=O)[nH]c2=O)O[C@@H]1[C@@H](O[C@H]1OC(C(=O)NCc2ccc3c(c2)OCO3)=C[C@H](O)[C@@H]1O)C(N)=O
50
COc1cccc(CCNC(=O)C2=C[C@H](O)[C@H](O)[C@@H](O[C@@H](C(N)=O)[C@H]3O[C@@H](n4ccc(=O)[nH]c4=O)[C@H](O)[C@@H]3OC)O2)c1
50
CO[C@H]1[C@@H](O)[C@H](n2ccc(=O)[nH]c2=O)O[C@@H]1[C@@H](O[C@H]1OC(C(=O)NCCc2ccccc2)=C[C@H](O)[C@@H]1O)C(N)=O
12.5
COc1ccccc1CCNC(=O)C1=C[C@H](O)[C@H](O)[C@@H](O[C@@H](C(N)=O)[C@H]2O[C@@H](n3ccc(=O)[nH]c3=O)[C@H](O)[C@@H]2OC)O1
50

Ask: Returns the measured MIC for the input molecule. Input: CO[C@H]1[C@@H](O)[C@H](n2ccc(=O)[nH]c2=O)O[C@@H]1[C@@H](O[C@H]1OC(C(=O)Nc2ccc(F)cc2F)=C[C@H](O)[C@@H]1O)C(N)=O
Result: 12.5

Ask: Entry CO[C@H]1[C@@H](O)[C@H](n2ccc(=O)[nH]c2=O)O[C@@H]1[C@@H](O[C@H]1OC(C(=O)NCCc2ccc(F)cc2)=C[C@H](O)[C@@H]1O)C(N)=O has what MIC?
Result: 12.5

Ask: Reported MIC, molecule CO[C@H]1[C@@H](O)[C@H](n2ccc(=O)[nH]c2=O)O[C@@H]1[C@@H](O[C@H]1OC(C(=O)NCCc2ccccn2)=C[C@H](O)[C@@H]1O)C(N)=O : ____
Result: 25

Ask: Item under review: CCCCCCc1ccc(NC(=O)C2=C[C@H](O)[C@H](O)[C@@H](O[C@@H](C(N)=O)[C@H]3O[C@@H](n4ccc(=O)[nH]c4=O)[C@H](O)[C@@H]3OC)O2)cc1 . Reported MIC?
Result: 12.5

Ask: Which MIC value belongs to CCCCNC(=O)C1=C[C@H](O)[C@H](O)[C@@H](O[C@@H](C(N)=O)[C@H]2O[C@@H](n3ccc(=O)[nH]c3=O)[C@H](O)[C@@H]2OC)O1 ?
Result: 12.5

Ask: Field request: MIC | item: CO[C@H]1[C@@H](O)[C@H](n2ccc(=O)[nH]c2=O)O[C@@H]1[C@@H](O[C@H]1OC(C(=O)NCc2ccccc2)=C[C@H](O)[C@@H]1O)C(N)=O
Result: 50

Ask: I am curious: what MIC value has been reported for CO[C@H]1[C@@H](O)[C@H](n2ccc(=O)[nH]c2=O)O[C@@H]1[C@@H](O[C@H]1OC(C(=O)Nc2ccccc2OCc2ccccc2)=C[C@H](O)[C@@H]1O)C(N)=O ?
Result: 25

Ask: // returns reported MIC for input CCCCCCCCCCNC(=O)C1=C[C@H](O)[C@H](O)[C@@H](O[C@@H](C(N)=O)[C@H]2O[C@@H](n3ccc(=O)[nH]c3=O)[C@H](O)[C@@H]2OC)O1
Result: 25

Ask: Entry CCCCCCCCCCCCNC(=O)C1=C[C@H](O)[C@H](O)[C@@H](O[C@@H](C(N)=O)[C@H]2O[C@@H](n3ccc(=O)[nH]c3=O)[C@H](O)[C@@H]2OC)O1 : reported MIC = ?
Result: 25

Ask: Would you mind telling me what MIC value was observed for CCc1ccccc1NC(=O)C1=C[C@H](O)[C@H](O)[C@@H](O[C@@H](C(N)=O)[C@H]2O[C@@H](n3ccc(=O)[nH]c3=O)[C@H](O)[C@@H]2OC)O1 ?
Result: 50

Ask: Value lookup for MIC; key = CO[C@H]1[C@@H](O)[C@H](n2ccc(=O)[nH]c2=O)O[C@@H]1[C@@H](O[C@H]1OC(C(=O)NCc2ccccn2)=C[C@H](O)[C@@H]1O)C(N)=O
Result: 100

Ask: Which MIC value is on record for CO[C@H]1[C@@H](O)[C@H](n2ccc(=O)[nH]c2=O)O[C@@H]1[C@@H](O[C@H]1OC(C(=O)Nc2ccc([N+](=O)[O-])cc2)=C[C@H](O)[C@@H]1O)C(N)=O ?
Result: 25

Ask: Recorded MIC for CO[C@H]1[C@@H](O)[C@H](n2ccc(=O)[nH]c2=O)O[C@@H]1[C@@H](O[C@H]1OC(C(=O)Nc2cccc(C)c2)=C[C@H](O)[C@@H]1O)C(N)=O , please?
Result: 12.5
